Where these numbers come from: the RNAGym collection of RNA variant scans (doi:10.7554/elife.80360)

B1: HDV Ribozyme (parent)
chain: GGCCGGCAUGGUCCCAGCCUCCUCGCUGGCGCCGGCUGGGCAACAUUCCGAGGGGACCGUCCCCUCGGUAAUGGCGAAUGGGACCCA

variants of: B1; assay: self-cleavage, relative activity (ratio to wild type); higher = more cleavage; co-transcriptional
# reported self-cleavage; entries follow
Answer using only a numeral; do not append any unit.

Query: Please report the recorded self-cleavage for C4U G52A .
Reply: 0.443

Query: Which self-cleavage value belongs to C13A C84A ?
Reply: 0.831

Query: What value of self-cleavage has been recorded for this entry: G5U G29C
Reply: 0

Query: Reported self-cleavage for C21G C75G : what is it?
Reply: 0.0426

Query: Would you mind telling me what self-cleavage value was observed for G29U U79G ?
Reply: 0.0386

Query: Consider the variant C7U U65G and give its measured self-cleavage.
Reply: 0.856

Query: Report self-cleavage for C26U A71G please.
Reply: 0.928

Query: self-cleavage for C4A A56C ?
Reply: 0.287
